Listed compounds paired with reported pIC50
System: A549
Test: cells
Details: Homo sapiens
Description: Antiproliferative activity against human A549 cells by MTT assay
pIC50: −log10 of the molar value.
readout-kind: pIC50

INSERT INTO measurements (smiles_input, target_or_test_system, observed) VALUES
  ('CN(C)C(=O)c1cc(NCc2cn(-c3cccc(NC(=O)c4cc(F)cc(F)c4)c3)nn2)ccc1NCCO', 'A549', 5.10),
  ('O=C(Nc1cccc(-n2cc(CNc3ccc(N4CCC(O)CC4)c(C(=O)N4CCOCC4)c3)nn2)c1)c1cc(F)cc(F)c1', 'A549', '< 5.00'),
  ('CN(C)c1ccc(NCc2cn(-c3cccc(NC(=O)c4cc(F)cc(F)c4)c3)nn2)cc1C(=O)N1CCCC1', 'A549', '< 5.00'),
  ('CN1CCN(c2ccc(NCc3cn(-c4cccc(NC(=O)c5cc(F)cc(F)c5)c4)nn3)cc2C(=O)N(C)C)CC1', 'A549', 5.43),
  ('CN(C)C(=O)c1cc(NCc2cn(-c3cccc(NC(=O)c4cc(F)cc(F)c4)c3)nn2)ccc1N1CCCCC1', 'A549', 5.39),
  ('CN1CCN(c2ccc(NCc3cn(-c4cccc(NC(=O)c5cc(F)cc(F)c5)c4)nn3)cc2C(=O)N2CCCC2)CC1', 'A549', '< 5.00'),
  ('CC1CCN(c2ccc(NCc3cn(-c4cccc(NC(=O)c5cc(F)cc(F)c5)c4)nn3)cc2C(=O)N2CCCCC2)CC1', 'A549', '< 5.00'),
  ('CN(C)C(=O)c1cc(NCc2cn(-c3cccc(NC(=O)c4cc(F)cc(F)c4)c3)nn2)ccc1N1CCC(O)CC1', 'A549', 5.69),
  ('CN1CCN(c2ccc(NCc3cn(-c4cccc(NC(=O)c5cc(F)cc(F)c5)c4)nn3)cc2C(=O)N2CCOCC2)CC1', 'A549', '< 5.00'),
  ('O=C(Nc1cccc(-n2cc(CNc3ccc(NCCO)c(C(=O)N4CCOCC4)c3)nn2)c1)c1cc(F)cc(F)c1', 'A549', '< 5.00'),
  ('O=C(Nc1cccc(-n2cc(CNc3ccc(N4CCCCC4)c(C(=O)N4CCOCC4)c3)nn2)c1)c1cc(F)cc(F)c1', 'A549', '< 5.00'),
  ('CN1CCN(c2ccc(NCc3cn(-c4cccc(NC(=O)c5cc(F)cc(F)c5)c4)nn3)cc2C(=O)N2CCCCC2)CC1', 'A549', '< 5.00');
